Numbers sourced from ChEMBL document CHEMBL1143509.

STUDY_TARGET: Sodium channel protein type 9 subunit alpha (Homo sapiens)
Sequence (Q15858 whole entry): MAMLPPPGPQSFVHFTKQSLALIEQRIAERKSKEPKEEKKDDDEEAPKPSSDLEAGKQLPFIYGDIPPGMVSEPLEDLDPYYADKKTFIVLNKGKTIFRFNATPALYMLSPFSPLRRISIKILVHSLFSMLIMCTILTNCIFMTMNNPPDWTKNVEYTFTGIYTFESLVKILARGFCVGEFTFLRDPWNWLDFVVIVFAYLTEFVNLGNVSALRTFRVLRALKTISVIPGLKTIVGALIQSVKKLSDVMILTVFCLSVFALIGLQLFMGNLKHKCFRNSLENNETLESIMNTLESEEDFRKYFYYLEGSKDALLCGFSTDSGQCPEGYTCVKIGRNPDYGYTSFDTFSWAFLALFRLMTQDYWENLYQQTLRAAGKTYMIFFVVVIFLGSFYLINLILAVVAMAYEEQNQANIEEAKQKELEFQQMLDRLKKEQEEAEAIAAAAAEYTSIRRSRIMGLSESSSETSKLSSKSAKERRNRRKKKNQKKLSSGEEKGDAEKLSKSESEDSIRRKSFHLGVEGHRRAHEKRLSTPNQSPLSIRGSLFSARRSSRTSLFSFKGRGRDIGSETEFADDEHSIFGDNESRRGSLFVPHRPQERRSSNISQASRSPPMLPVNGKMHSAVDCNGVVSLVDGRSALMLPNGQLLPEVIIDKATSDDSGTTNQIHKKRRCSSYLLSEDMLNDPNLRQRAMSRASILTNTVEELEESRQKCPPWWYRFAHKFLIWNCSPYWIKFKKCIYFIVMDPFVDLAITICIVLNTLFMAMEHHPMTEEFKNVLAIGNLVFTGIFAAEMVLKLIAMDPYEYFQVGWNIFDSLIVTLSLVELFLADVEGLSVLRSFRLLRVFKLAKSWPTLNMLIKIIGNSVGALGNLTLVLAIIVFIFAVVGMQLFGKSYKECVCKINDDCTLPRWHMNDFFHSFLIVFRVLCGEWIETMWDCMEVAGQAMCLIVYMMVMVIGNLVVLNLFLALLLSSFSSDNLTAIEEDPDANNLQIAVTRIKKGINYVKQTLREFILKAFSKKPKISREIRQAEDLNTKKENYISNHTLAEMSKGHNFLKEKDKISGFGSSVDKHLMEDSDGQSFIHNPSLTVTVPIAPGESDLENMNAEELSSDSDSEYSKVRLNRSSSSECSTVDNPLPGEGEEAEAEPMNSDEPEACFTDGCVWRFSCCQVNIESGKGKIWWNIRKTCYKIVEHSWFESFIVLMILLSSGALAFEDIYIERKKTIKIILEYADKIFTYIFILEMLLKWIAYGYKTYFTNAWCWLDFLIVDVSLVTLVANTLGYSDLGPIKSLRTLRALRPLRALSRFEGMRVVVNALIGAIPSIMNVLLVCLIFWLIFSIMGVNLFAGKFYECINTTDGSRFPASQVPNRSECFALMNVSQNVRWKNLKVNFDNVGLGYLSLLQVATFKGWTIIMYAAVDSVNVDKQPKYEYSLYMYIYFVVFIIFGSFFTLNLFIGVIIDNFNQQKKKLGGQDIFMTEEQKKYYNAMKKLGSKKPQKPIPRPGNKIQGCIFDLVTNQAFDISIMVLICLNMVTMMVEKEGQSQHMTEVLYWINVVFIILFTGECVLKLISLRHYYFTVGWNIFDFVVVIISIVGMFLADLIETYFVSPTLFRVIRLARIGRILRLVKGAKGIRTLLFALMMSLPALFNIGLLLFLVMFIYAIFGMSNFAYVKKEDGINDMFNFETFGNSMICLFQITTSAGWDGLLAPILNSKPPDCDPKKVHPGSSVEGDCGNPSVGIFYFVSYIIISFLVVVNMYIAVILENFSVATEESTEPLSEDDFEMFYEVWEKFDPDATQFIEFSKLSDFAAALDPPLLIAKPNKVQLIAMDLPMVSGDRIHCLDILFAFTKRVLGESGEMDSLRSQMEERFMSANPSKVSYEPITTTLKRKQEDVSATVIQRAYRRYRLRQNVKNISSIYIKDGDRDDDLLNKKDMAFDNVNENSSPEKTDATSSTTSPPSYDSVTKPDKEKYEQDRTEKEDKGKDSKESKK
METHOD_DESCRIPTION: In vitro inhibitory concentration against voltage-gated sodium channel Nav1.7 in voltage-ion-probe-reader (VIPR) assay
Catalogue of IC50 readings, one per entry.
Report the value in nM with no unit label.

Reference set, count: 3
>>> experimental_result("NS(=O)(=O)c1ccccc1-c1ccc(CNC(=O)[C@H]2CCC[C@@H]2C(=O)NCc2ccc(-c3ccccc3)cc2)cc1 (racemic)")
660
>>> experimental_result("CN(Cc1ccc(-c2ccccc2S(N)(=O)=O)cc1)C(=O)[C@H]1CCC[C@@H]1C(=O)NCc1cccc(OC(F)(F)F)c1 (racemic)")
1300
>>> experimental_result("NS(=O)(=O)c1ccccc1-c1ccc(CNC(=O)[C@H]2CCC[C@@H]2C(=O)NCc2cccc(OC(F)(F)F)c2)cc1 (racemic)")
1100

# get_value(readout='IC50', item= CN(Cc1ccc(-c2ccccc2S(N)(=O)=O)cc1)C(=O)[C@H]1CCC[C@@H]1C(=O)NCc1ccc(-c2cccs2)s1 (racemic) ) 760

Entry to check: NS(=O)(=O)c1ccccc1-c1ccc(CNC(=O)CC(=O)NCc2ccc(-c3cccs3)s2)cc1 860
